# system.name: Torsin-1A (Homo sapiens) (UniProt O14656)
# Sequence (O14656 whole entry, looked up): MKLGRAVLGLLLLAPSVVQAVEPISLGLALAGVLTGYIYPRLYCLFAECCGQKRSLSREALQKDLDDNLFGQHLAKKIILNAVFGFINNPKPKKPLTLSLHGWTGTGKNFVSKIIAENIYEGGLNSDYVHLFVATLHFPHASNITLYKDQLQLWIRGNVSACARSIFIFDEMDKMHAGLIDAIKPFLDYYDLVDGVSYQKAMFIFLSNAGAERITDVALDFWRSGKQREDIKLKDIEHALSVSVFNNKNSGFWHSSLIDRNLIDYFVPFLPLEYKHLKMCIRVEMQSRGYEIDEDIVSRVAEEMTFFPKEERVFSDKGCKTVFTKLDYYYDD
# method.description: torsin A mutant lysate binding on microarrays – cell lysate, small-molecule microarray, COS7 lysate, 635/667 nm fluorescence, primary screen (AID 1150);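 note: score pools 667 nm emission and signal to noise measuring lysate protein binding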
# measurement.conditions: COS7 hTOR1A mutant lysate, 635 nm fluorescence, higher = more signal
measure.name: composite z-score
Form field (numeric): enter value without unit.

Please look up its composite z-score: `CN(C)CCCCCCNC(=O)[C@@H]1C[C@@H]2C(=O)NCC(=O)N2[C@@H]1c1ccc(O)cc1`
1.32

Recorded composite z-score of `C=CCOC(=O)[C@@H]1[C@H]2C(=O)O[C@H](c3ccccc3)[C@H](c3ccccc3)N2[C@H](c2ccc(OCCOC(=O)[C@@H]3C[C@@H]4C(=O)N5CCC[C@H]5C(=O)N4[C@@H]3c3cccc(OCCO)c3)cc2)[C@@]12C(=O)Nc1ccc(I)cc12` , please.
0.623

What value of composite z-score has been reported for the following molecule? `COCCCNC(=O)[C@@H]1c2ccccc2C(=O)N(c2ccc(C)cn2)[C@H]1c1ccc(CO)cc1`
-2.65
